Assignment: determine reported GI50 for the given compounds.
# target system: Ba/F3-EGFR-D770_N771insSVD cells (Homo sapiens, UniProt P00533, DUP768-770, cells depend on it)
# Sequence (P00533 with tags, fused parts or gaps DUP768-770): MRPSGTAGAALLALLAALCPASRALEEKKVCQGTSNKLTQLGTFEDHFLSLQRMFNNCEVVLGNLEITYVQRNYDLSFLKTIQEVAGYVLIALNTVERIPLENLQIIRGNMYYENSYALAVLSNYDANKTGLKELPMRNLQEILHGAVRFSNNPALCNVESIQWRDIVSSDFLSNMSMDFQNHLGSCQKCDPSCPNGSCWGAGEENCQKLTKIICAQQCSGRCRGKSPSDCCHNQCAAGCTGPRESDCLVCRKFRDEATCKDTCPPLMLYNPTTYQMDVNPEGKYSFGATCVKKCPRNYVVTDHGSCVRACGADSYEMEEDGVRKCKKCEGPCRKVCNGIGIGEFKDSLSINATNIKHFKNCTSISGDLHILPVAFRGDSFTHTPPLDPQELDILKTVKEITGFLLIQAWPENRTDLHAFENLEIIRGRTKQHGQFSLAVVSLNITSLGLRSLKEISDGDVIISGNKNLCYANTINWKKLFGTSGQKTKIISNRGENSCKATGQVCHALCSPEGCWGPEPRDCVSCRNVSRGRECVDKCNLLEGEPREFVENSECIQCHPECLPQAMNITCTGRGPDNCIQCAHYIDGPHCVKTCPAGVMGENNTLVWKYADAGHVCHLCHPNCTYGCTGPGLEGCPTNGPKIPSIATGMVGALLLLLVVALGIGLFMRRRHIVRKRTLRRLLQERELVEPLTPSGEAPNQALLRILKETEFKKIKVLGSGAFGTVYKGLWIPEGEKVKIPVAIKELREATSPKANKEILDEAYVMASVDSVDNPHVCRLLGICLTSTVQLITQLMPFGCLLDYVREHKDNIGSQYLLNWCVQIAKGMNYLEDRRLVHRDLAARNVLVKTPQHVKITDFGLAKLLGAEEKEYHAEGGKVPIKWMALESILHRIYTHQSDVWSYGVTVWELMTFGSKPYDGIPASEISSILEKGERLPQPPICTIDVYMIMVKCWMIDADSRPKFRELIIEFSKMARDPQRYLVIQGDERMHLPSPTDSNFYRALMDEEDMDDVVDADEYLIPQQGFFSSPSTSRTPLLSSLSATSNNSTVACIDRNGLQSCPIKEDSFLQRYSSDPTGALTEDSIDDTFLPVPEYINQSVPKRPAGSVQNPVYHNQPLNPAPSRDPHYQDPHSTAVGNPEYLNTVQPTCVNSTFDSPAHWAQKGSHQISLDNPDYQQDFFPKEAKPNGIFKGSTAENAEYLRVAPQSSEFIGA
# assay details: Ba/F3 cell survival assay, EGFR D770_N771insSVD
# Format: cell-based
# condition parameters: Cell Titer-Glo, 48 h, without IL-3; Table 4; read-out: BA/F3 (insSVD) IC50
Numbers only, in µM.

Example cases with answers are listed next.
COc1c(Cl)cccc1Nc1c(-c2ccncc2OC[C@@H]2CCCO2)[nH]c2c1C(=O)NCC2CCO (mixture of isomers) [Example 16]
0.0638
COCC(C)Oc1cnccc1-c1[nH]c2c(c1Nc1cccc(Cl)c1OC)C(=O)N[C@H](C)C2 (single isomer, unassigned) [Example 42]
0.0153
COc1c(Cl)cccc1Nc1c(-c2ccncc2OC[C@@H]2CCCO2)[nH]c2c1C(=O)N[C@H](C)C2 (single isomer, unassigned) [Example 5]
0.0202
COc1c(Cl)cccc1Nc1c(-c2ccncc2OCCC2CCCCO2)[nH]c2c1C(=O)NC1(CCC1)C2 (stereo not shown) [Example 128]
0.0384
COc1c(Cl)cccc1Nc1c(-c2ccncc2OCC[C@@H]2CCCO2)[nH]c2c1C(=O)N[C@H](C)C2 [Example 92]
0.0202

Go through the items and report each one's GI50.
1. Cc1c(Cl)cccc1Nc1c(-c2ccncc2OCC2COCCO2)[nH]c2c1C(=O)N[C@H](C)C2 (stereo partly shown) [Example 102]
2. COc1c(Cl)cccc1Nc1c(-c2ccncc2OC[C@@H]2COCCN2C)[nH]c2c1C(=O)NCC2CCF (single isomer, unassigned) [Example 90]
3. COc1c(Cl)cccc1Nc1c(-c2ccncc2OCC(C)OC)[nH]c2c1C(=O)N[C@H](C)C2 (single isomer, unassigned) [Example 82]

OUT:
1: 0.0387; 2: 0.0838; 3: 0.0139
